Source: PubChem BioAssay (NCI)

system: SK-MEL-5 melanoma; test: NCI tumour cell line growth inhibition, 48 h
// label = 1 (yes) if TGI is not less than 10 µM, otherwise 0 (no)

COMPOUND | ASSAY TARGET | ANSWER LABEL
NCC1OC(n2cnc3c(N)ncnc32)CC1O (stereo not given) | SK-MEL-5 melanoma | 1 (yes)
O=C(c1ccccc1)c1ccc2[nH]c(-c3c(Cl)c(Cl)c(Cl)c(Cl)c3C(=O)N/N=C/c3cccc(Oc4ccccc4)c3)nc2c1 | SK-MEL-5 melanoma | 1 (yes)

Task: Dear colleague, could you confirm whether `CC(C)NC(=O)N(Nc1ccccc1)C(C)(C)C` has TGI at or above 10 µM?
Output: 1 (yes)

Task: Is TGI for `C/C(=N\NS(=O)(=O)c1ccc(C)cc1)P(=O)(O)O` at or above 10 µM?
Output: 1 (yes)

Task: Please indicate if the recorded TGI for COC(=O)C(C(=O)OC)C1CCCC(=O)C1 (stereo not given) meets or exceeds 10 µM.
Output: 1 (yes)

Task: Entry Cc1c2c(c(O)c3c(O)cccc13)C(=O)C1(O)C(O)=C(C(=O)NCNc3ccc(C(N)=O)cn3)C(=O)C(N(C)C)C1C2 (stereo not given) : is its TGI no less than 10 µM?
Output: 1 (yes)

Task: Is reported TGI greater than or equal to 10 µM here: `CCOc1ccc(N/C(=C(/C(Cl)=C(/Cl)N2CCCCC2)[N+](=O)[O-])n2nnc3ccccc32)cc1`
Output: 1 (yes)

----------
tested on: UACC-62 melanoma; assay: NCI tumour cell line growth inhibition, 48 h
EXPERIMENTAL ENDPOINT: TGI

Recorded TGI, per entry:
COMPOUND | EXPERIMENTAL ENDPOINT | MEAS VALUE
N#CC(Cc1ccccc1)N(CCC1=CCCCC1)Cc1ccccc1 (configuration not stated) | TGI | > 100 µM
O=C1C2=C(CC3=C(C2)CS(=O)(=O)C3)C(=O)C2=C1CC1=C(C2)CS(=O)(=O)C1 | TGI | 37.1 µM
O=C(Cc1ccc(F)c(F)c1)Nc1cc(C2(C(F)(F)F)CC2)nn1Cc1ccccc1 | TGI | > 15 µM
c1ccc(CN2COc3c(ccc4c3OCN(Cc3ccccc3)C4)C2)cc1 | TGI | 4.24 µM
Nc1nc2ncc(CNc3ccc(C(=O)NC(CCC(=O)O)C(=O)O)cc3)nc2c(=O)[nH]1 (configuration not stated) | TGI | > 100 µM

Task: Would you kindly share the measured TGI for CC(C)=CC(Cc1ccccc1)S(=O)(=O)c1nc2ccccc2s1 (configuration not stated) ?
Output: 46.5 µM

Task: Data request, read-out TGI, for CN1C(=O)C2C3C=C4c5ccccc5N(c5ccccc5)C4(C2C1=O)[C@H]1C(=O)N(C)C(=O)[C@@H]31 (some centres not stated)
Output: > 100 µM

Task: Value lookup for TGI; key = `O=C(Nc1ccc(Cl)c(Cl)c1)Nc1c(Oc2ccc(Cl)c(Cl)c2)ccc(Cl)c1S(=O)(=O)O`
Output: > 100 µM

Task: # get_value(readout='TGI', item= CCC[CH2][Sn]1([CH2]CCC)[O]CC(CN(C)Cc2ccccc2)[O]1 (configuration not stated) )
Output: 16.1 µM

Task: Quick check: TGI of `CN(C)CCNC(=O)c1cccc(N(C)C(=O)c2ccccc2)c1[N+](=O)[O-]` ?
Output: > 100 µM

Task: Which TGI value belongs to `Nc1nnnn1CCO` ?
Output: > 100 µM

Task: Need TGI, item `Clc1ccc(-c2c3c(nn2-c2ccccn2)CCc2ccccc2-3)cc1Cl`
Output: > 100 µM

Task: Returns the measured TGI for the input compound. Input: NC(Cc1ccc(N(CCCl)CCCl)cc1)C(=O)NC(CCC(=O)O)C(=O)O (configuration not stated)
Output: > 100 µM

----------
system: SK-OV-3 ovarian; experiment: NCI tumour cell line growth inhibition, 48 h
EXPERIMENTAL ENDPOINT: TGI

The following compounds have reported results that may help.
COMPOUND | ASSAY TARGET | TGI
COC1CN(C)C(=Nc2cccc3ccccc23)S1 (stereo not given) | SK-OV-3 ovarian | > 10 µM
NCCCC[C@H](N)C(=O)Nc1ccc(-c2nc3ccccc3s2)cc1 | SK-OV-3 ovarian | 39.2 µM
COc1ccc2ccccc2c1C1NC(=O)c2ccccc2N1 (stereo not given) | SK-OV-3 ovarian | 9.29 µM
C=C(CCC/C(C)=C/C=C/[C@@H](C)CCCc1ccoc1)C[C@@H]1OC(=O)[C@H](C)[C@@H]1O | SK-OV-3 ovarian | 15.8 µM
CCOC(=O)C1c2[nH]c3ccccc3c2CCN1C(=O)c1ccc(OC)o1 (stereo not given) | SK-OV-3 ovarian | > 10 µM

Task: What does the record list as TGI for COc1cc(C2c3cc4c(cc3OC(NNS(=O)(=O)c3ccc(C)cc3)C2C)OCO4)cc(OC)c1O (stereo not given) ?
Output: 79.2 µM

Task: Give its TGI value. Item: `COc1ccc(-c2cc(=O)c3cc(OC)ccc3[nH]2)cc1`
Output: > 100 µM

----------
tested on: SF-295 CNS; assay: NCI tumour cell line growth inhibition, 48 h
Reported TGI by item:

Here are 4 molecules together with their reported answers.
MOLECULE | ASSAY TARGET | MEAS VALUE
Cc1cccc2c1c(=O)c1c(O)c3c(cc1n2C)OC(C)(C)C=C3 | SF-295 CNS | > 10 µM
O=C1C2=C(CC3=C(C2)CS(=O)(=O)C3)C(=O)C2=C1CC1=C(C2)CS(=O)(=O)C1 | SF-295 CNS | 44.9 µM
Cc1cc(/C=C/c2cc[n+](C)c3ccccc23)c(O)c2ncccc12 | SF-295 CNS | 15.5 µM
Oc1ccc(C(c2ccc(O)cc2)c2ccc(O)cc2)cc1 | SF-295 CNS | > 100 µM

Task: # lookup: TGI of `CS(=O)(=O)c1ccc(N=C/C=C/Nc2ccc(S(C)(=O)=O)cc2)cc1`
Output: > 100 µM

Task: TGI for `CN(/N=C/c1cccc2cccnc12)c1ccc(Cl)cc1[N+](=O)[O-]` ?
Output: > 100 µM

Task: # get_value(readout='TGI', item= `Cn1cnc([N+](=O)[O-])c1Sc1nccn1-c1cccc2ccccc12` )
Output: > 100 µM

Task: Given `C=CC(=O)Nc1cc(C)ccc1Nc1nc(Nc2cc(OC)ncc2C)ncc1C(F)(F)F` , state its recorded TGI.
Output: > 100 µM

Task: Name the recorded TGI for Nc1nc2ncc(CNc3ccc(C(=O)NC(CCC(=O)O)C(=O)O)cc3)nc2c(=O)[nH]1 (configuration not stated) .
Output: > 100 µM

Task: Query (molecule): CC(=O)OC[C@@H](COC(=O)/C=C/c1ccc(O)cc1)OC1OC(CO)C(O)C(O)C1O (some centres not stated) ; field requested: TGI
Output: > 100 µM

Task: Need TGI, item `CC(C)N=C(N)NC#N`
Output: > 100 µM

Task: What value of TGI has been recorded for this entry: OC(c1ccc(C(F)(F)F)cc1)C(F)(F)c1nc2ccccc2o1 (configuration not stated)
Output: > 100 µM

Task: What TGI value was documented for this molecule, `O=C(O)CCSCc1ccccc1` ?
Output: > 100 µM

Task: Fill blank: measured TGI of the molecule `CCN(CC)CCCNCc1cc(-c2ccccc2)nc2ccccc12` is ____.
Output: 44.7 µM

Task: Given the entry CCOC(=O)C(Cc1ccc(OC(=O)c2ccc(OC)cc2)cc1)NC(=O)C(F)(F)F (configuration not stated) , report its measured TGI.
Output: > 100 µM

Task: What value of TGI has been recorded for this entry: `C[n+]1c2cc(N)ccc2cc2ccc(N)cc21`
Output: 5.63 µM [middle of 4 runs]

Task: Given the entry `Cc1ccc(/C(O)=C/C(=O)C(=O)NC23CC4CC(CC(C4)C2)C3)cc1` , report its measured TGI.
Output: > 10 µM

----------
system: NCI-H226 lung; assay: NCI tumour cell line growth inhibition, 48 h; in the data active means GI50 below about 0.43 µM; inactive means the rest
Outcomes you can answer with include only these: 1.0 (active), 0.0 (inactive)

Observe how each entry below is paired with its result.
COMPOUND | ANSWER LABEL
S=C(Nc1ccc(-c2nc3ccccc3[nH]2)cc1)Nc1ccc(-c2nc3ccccc3[nH]2)cc1 | 0.0
NCCCCCCCn1c2c(c3ccccc3c1=O)C(=O)c1ccccc1-2 | 0.0
CN(Cc1ccccc1)c1ccc(CO)c(Cl)c1 | 1.0
CC(C)(C)c1cc(-n2c(-c3ccc(Cl)cc3)nc3cc(C(=O)Nc4ccc(Cl)cc4)ccc32)n[nH]1 | 0.0

Task: How was `N=c1ccn(O)cc1/C=C1/C(=O)Nc2ccccc21` classified in this test?
Output: 0.0

Task: Given `Cc1nc2ccccc2c(/C=C/c2ccc(Cl)cc2)c1C(=O)/C=C/c1ccc(C(F)(F)F)cc1` , state the outcome it received in this test.
Output: 1.0

Task: For C[As](C)SCC(COC(=O)C(Cl)c1ccccc1)OC(=O)C(Cl)c1ccccc1 (configuration not stated) , which call appears in the assay record?
Output: 0.0
